Test system: primary human hepatic stellate cells (donor 1)
Assay: PSMB2 reference mRNA level vs DMSO (fold); higher = more PSMB2 expression
Settings: 48 h
Structures can show the parent of a compound that is named as a salt.

>  <molecule>
Cc1nc(Nc2ncc(C(=O)Nc3c(C)cccc3Cl)s2)cc(N2CCN(CCO)CC2)n1 (33.3333 µM)

>  <PSMB2 reference mRNA level>
1.6

$$$$
>  <molecule>
CC[C@@H]1C(=O)N(C)c2cnc(Nc3ccc(C(=O)NC4CCN(C)CC4)cc3OC)nc2N1C1CCCC1 (33.3333 µM)

>  <PSMB2 reference mRNA level>
0.0022

$$$$
>  <molecule>
O=S(=O)(NCCNC/C=C/c1ccc(Br)cc1)c1cccc2cnccc12 [H-89, Dihydrochloride] (11.1 µM)

>  <PSMB2 reference mRNA level>
1.02

$$$$
>  <molecule>
CCN1CCC(n2cc(CNc3cc(Cl)c4ncc(C#N)c(Nc5ccc(F)c(Cl)c5)c4c3)nn2)CC1 (33.3333 µM)

>  <PSMB2 reference mRNA level>
0.0139

$$$$
>  <molecule>
CS(=O)(=O)CCNCc1ccc(-c2ccc3ncnc(Nc4ccc(OCc5cccc(F)c5)c(Cl)c4)c3c2)o1 (6.66667 µM)

>  <PSMB2 reference mRNA level>
1.27

$$$$
>  <molecule>
Cc1[nH]c(/C=C2\C(=O)Nc3ccc(S(=O)(=O)N(C)c4cccc(Cl)c4)cc32)c(C)c1C(=O)N1CCN(C)CC1 (33.3333 µM)

>  <PSMB2 reference mRNA level>
0.98

$$$$
>  <molecule>
CN(C)CCC(c1ccc(Br)cc1)c1ccccn1 (configuration not stated) [Brompheniramine maleate] (33.3333 µM)

>  <PSMB2 reference mRNA level>
1.3

$$$$
>  <molecule>
C[C@H]1O[C@@H](O[C@H]2[C@@H](O)C[C@H](O[C@H]3[C@@H](O)C[C@H](O[C@H]4CC[C@@]5(C)[C@H](CC[C@@H]6[C@@H]5C[C@@H](O)[C@]5(C)[C@@H](C7=CC(=O)OC7)CC[C@]65O)C4)O[C@@H]3C)O[C@@H]2C)C[C@H](O)[C@@H]1O [Digoxin] (33.3333 µM)

>  <PSMB2 reference mRNA level>
1.06

$$$$
>  <molecule>
Clc1ccc(C2(c3ccc(-c4cn[nH]c4)cc3)CCNCC2)cc1 (33.3333 µM)

>  <PSMB2 reference mRNA level>
0.745

$$$$
>  <molecule>
CC[C@]1(O)C[C@@H]2CN(CCc3c([nH]c4ccccc34)[C@@](C(=O)OC)(c3cc4c(cc3OC)N(C)[C@H]3[C@@](O)(C(=O)OC)[C@H](OC(C)=O)[C@]5(CC)C=CCN6CC[C@]43[C@@H]65)C2)C1 [Vinblastine sulfate] (33.3333 µM)

>  <PSMB2 reference mRNA level>
0.0998

$$$$
>  <molecule>
Cn1cc(CNCC2CCN(c3ncc(C(=O)NO)cn3)CC2)c2ccccc21 [Quisinostat] (33.3333 µM)

>  <PSMB2 reference mRNA level>
0.103

$$$$
>  <molecule>
O=C1NC(=O)/C(=C/c2ccc(-c3ccc(F)cc3O)o2)S1 (33.3333 µM)

>  <PSMB2 reference mRNA level>
3.41

$$$$
>  <molecule>
CC(C)(C)c1cc(NC(=O)Nc2ccc(-c3cn4c(n3)sc3cc(OCCN5CCOCC5)ccc34)cc2)no1 [Quizartinib (AC220)] (11.1 µM)

>  <PSMB2 reference mRNA level>
2.12

$$$$
>  <molecule>
CN1CCC(CNc2ccc3ncc(-c4cccc(OC(F)(F)F)c4)n3n2)CC1 (6.66667 µM)

>  <PSMB2 reference mRNA level>
0.712

$$$$
>  <molecule>
C#C[C@]1(O)CC[C@H]2[C@@H]3CCC4=Cc5oncc5C[C@]4(C)[C@H]3CC[C@@]21C [Danazol] (33.3333 µM)

>  <PSMB2 reference mRNA level>
0.993

$$$$
>  <molecule>
C[C@@H](Oc1cc(-c2cnn(C3CCNCC3)c2)cnc1N)c1c(Cl)ccc(F)c1Cl (11.1 µM)

>  <PSMB2 reference mRNA level>
0.805

$$$$
>  <molecule>
CN1CCCN(C(c2ccccc2)c2ccc(Cl)cc2)CC1 (configuration not stated) [Homochlorcyclizine dihydrochloride] (33.3333 µM)

>  <PSMB2 reference mRNA level>
1.19

$$$$
>  <molecule>
COc1cc2nc(N3CCCN(C)CC3)nc(NC3CCN(Cc4ccccc4)CC3)c2cc1OC (3.33333 µM)

>  <PSMB2 reference mRNA level>
0.211

$$$$
>  <molecule>
COC(=O)C[C@](O)(CCCC(C)(C)O)C(=O)O[C@@H]1C(OC)=C[C@]23CCCN2CCc2cc4c(cc2[C@H]13)OCO4 [Homoharringtonine] (33.3333 µM)

>  <PSMB2 reference mRNA level>
0.38

$$$$
>  <molecule>
Cc1ccc2c(c1)c1c3n2CCNC3CCC1 (configuration not stated) [Pirlindole mesylate] (20.6667 µM)

>  <PSMB2 reference mRNA level>
0.807

$$$$
>  <molecule>
Nc1ccc(C(=O)Nc2cccc(-c3nc(N4CCOCC4)c4oc5ncccc5c4n3)c2)cn1 (6.66667 µM)

>  <PSMB2 reference mRNA level>
3.27

$$$$
>  <molecule>
CNC(=O)[C@@H](Cc1ccccc1)N(C)C(=O)[C@@H](Cc1ccc2ccccc2c1)N(C)C(=O)/C=C/CC(C)(C)N [Tabimorelin] (33.3333 µM)

>  <PSMB2 reference mRNA level>
1.83

$$$$
>  <molecule>
CSc1ccc2c(c1)C(N1CCN(C)CC1)Cc1ccccc1S2 (configuration not stated) [Methiothepin maleate] (33.3333 µM)

>  <PSMB2 reference mRNA level>
0.000808

$$$$
>  <molecule>
CN1CCN2c3ccccc3Cc3ccccc3C2C1 (configuration not stated) [Mianserin hcl] (25.2333 µM)

>  <PSMB2 reference mRNA level>
1.26

$$$$
>  <molecule>
CNc1nccc(-c2cccnc2Oc2cc(C(=O)Nc3cccc(C(F)(F)F)c3)ccc2C)n1 (33.3333 µM)

>  <PSMB2 reference mRNA level>
0.887

$$$$
>  <molecule>
Cc1ccc(NC(=O)c2ccc(CN3CCN(C)CC3)cc2)cc1Nc1nc(-c2cccnc2)cs1 [Masitinib (AB1010, Masivet)] (6.66667 µM)

>  <PSMB2 reference mRNA level>
0.679

$$$$
>  <molecule>
NS(=O)(=O)C#Cc1ccccc1 [Pifithrin->m] (33.3333 µM)

>  <PSMB2 reference mRNA level>
5.28

$$$$
